# measured-on: rat metabotropic glutamate receptor 5 (mGluR5) (Rattus norvegicus)
# Construct: expressed in transfected cells; host or cells: HEK 293
# Sequence (P31424 21-1171 isoform P31424-2 limits assumed): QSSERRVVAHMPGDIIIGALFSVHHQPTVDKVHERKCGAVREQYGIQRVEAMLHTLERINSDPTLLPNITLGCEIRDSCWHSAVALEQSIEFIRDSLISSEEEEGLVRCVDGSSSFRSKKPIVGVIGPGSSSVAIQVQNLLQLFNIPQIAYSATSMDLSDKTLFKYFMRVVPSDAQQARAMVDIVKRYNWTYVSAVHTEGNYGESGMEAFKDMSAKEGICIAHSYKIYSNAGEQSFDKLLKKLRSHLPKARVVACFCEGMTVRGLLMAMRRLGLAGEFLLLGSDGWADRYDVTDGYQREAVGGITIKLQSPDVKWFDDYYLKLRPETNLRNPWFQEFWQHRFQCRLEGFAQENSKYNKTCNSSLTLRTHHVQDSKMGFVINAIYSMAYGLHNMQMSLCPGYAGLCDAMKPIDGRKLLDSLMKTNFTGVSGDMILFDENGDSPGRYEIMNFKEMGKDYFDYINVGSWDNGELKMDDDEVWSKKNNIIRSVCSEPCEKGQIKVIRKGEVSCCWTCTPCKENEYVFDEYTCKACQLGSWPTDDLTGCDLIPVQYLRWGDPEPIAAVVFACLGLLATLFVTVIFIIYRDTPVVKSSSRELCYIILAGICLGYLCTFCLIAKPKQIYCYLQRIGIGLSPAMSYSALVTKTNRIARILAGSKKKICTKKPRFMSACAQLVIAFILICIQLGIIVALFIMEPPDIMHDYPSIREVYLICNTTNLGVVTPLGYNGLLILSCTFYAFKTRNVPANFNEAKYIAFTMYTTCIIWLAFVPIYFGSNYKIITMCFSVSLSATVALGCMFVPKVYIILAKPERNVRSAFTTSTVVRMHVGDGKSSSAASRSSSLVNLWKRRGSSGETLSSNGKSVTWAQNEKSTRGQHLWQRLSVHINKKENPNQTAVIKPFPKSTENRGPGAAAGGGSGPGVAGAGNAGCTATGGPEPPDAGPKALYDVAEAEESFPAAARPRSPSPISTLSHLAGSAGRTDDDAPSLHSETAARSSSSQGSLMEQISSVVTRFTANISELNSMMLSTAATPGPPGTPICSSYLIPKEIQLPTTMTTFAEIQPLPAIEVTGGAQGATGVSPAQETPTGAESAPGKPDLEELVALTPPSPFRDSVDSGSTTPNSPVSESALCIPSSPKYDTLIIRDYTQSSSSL
# run-description: Calcium mobilization assay (FLIPR) for negative or positive allosteric activity, HEK 293 cells
# Assay type: cell-based
# assay-conditions: HEK293, negative allosteric modulation, inhibition of EC80 glutamate response; read-out: FLIPR maximum inhibition
outcome-measure: Emax

Query :: Quick one: Emax of O=C(NC12CC3CC(C1)CC(NC(=O)c1ccncc1)(C3)C2)c1ccncc1 [Example 4] ?
Result :: 90 to 99%

Query :: Thanks! And Cc1cccc(C(=O)NC23CC4CC(C2)CC(NC(=O)c2cccc(NCCN(C)C)n2)(C4)C3)n1 [Example 232] ?
Result :: 63 to 99%

Query :: Thanks! And COCCNc1cccc(C(=O)NC23CC4CC(CC(NC(=O)c5cccc(C)n5)(C4)C2)C3)n1 [Example 235] ?
Result :: 63 to 99%

Query :: Thanks! And CN(C)CCCNc1cccc(C(=O)NC23CC4CC(CC(NC(=O)c5ccccn5)(C4)C2)C3)n1 [Example 226] ?
Result :: 63 to 99%

Query :: Thanks! And N#Cc1cccc(C(=O)NC23CC4CC(C2)CC(NC(=O)c2cccc(C#N)c2)(C4)C3)c1 [Example 5] ?
Result :: 90 to 99%

Query :: Thanks! And O=C(NC12CC3CC(C1)CC(NC(=O)c1nccc(C(F)(F)F)n1)(C3)C2)c1cccc(F)c1 [Example 184] ?
Result :: 63 to 99%

Query :: Thanks! And CN(C)CCN(C)c1cccc(C(=O)NC23CC4CC(CC(NC(=O)c5cccc(F)c5)(C4)C2)C3)n1 [Example 248] ?
Result :: 63 to 99%

Query :: Thanks! And COCCN(C)c1cccc(C(=O)NC23CC4CC(CC(NC(=O)c5cccc(C)n5)(C4)C2)C3)n1 [Example 207] ?
Result :: 63 to 99%

Query :: Thanks! And Cc1cccc(C(=O)NC23CC4CC(C2)CC(NC(=O)c2c5ccccc5nn2C)(C4)C3)n1 [Example 49] ?
Result :: 63 to 99%

Query :: Thanks! And COc1ccnc(C(=O)NC23CC4CC(C2)CC(NC(=O)c2cncc(C)n2)(C4)C3)c1 [Example 153] ?
Result :: 70 to 99%

Query :: Thanks! And Cc1cccc(C(=O)NC23CC4CC(C2)CC(NC(=O)c2csc(C)n2)(C4)C3)n1 [Example 136] ?
Result :: 70 to 99%

Query :: Thanks! And Cc1nc(C(=O)NC23CC4CC(CC(NC(=O)c5cnccn5)(C4)C2)C3)cs1 [Example 187] ?
Result :: 63 to 99%

Query :: Thanks! And O=C(NC12CC3CC(C1)CC(NC(=O)c1cccc(NCCCO)n1)(C3)C2)c1cccc(F)c1 [Example 214] ?
Result :: 63 to 99%

Query :: Thanks! And Cc1cnc(C(=O)NC23CC4CC(CC(NC(=O)c5cccc(F)c5)(C4)C2)C3)cn1 [Example 94] ?
Result :: 63 to 99%

Query :: Thanks! And O=C(NC12CC3CC(C1)CC(NC(=O)C1CCCC1)(C3)C2)c1ccccn1 [Example 85] ?
Result :: 63 to 99%

Query :: Thanks! And Cn1nc(C(=O)NC23CC4CC(CC(NC(=O)c5ccccn5)(C4)C2)C3)cc1-c1cccs1 [Example 8] ?
Result :: 90 to 99%

Numbers sourced from patent US8716284B2.
